experiment: Tmax in Sprague-Dawley rat at 11.8 mg/kg, po via gavage by LC-MS/MS analysis; assay type: ADME, organism-based; details: in vivo
Readout: Tmax (h)

>>> meas_value("C=C(C)[C@@H]1CC[C@]2(CNCCCN3CCS(=O)(=O)CC3)CC[C@]3(C)[C@H](CC[C@@H]4[C@@]5(C)CC=C(c6ccc(C(=O)O)cc6)C(C)(C)[C@@H]5CC[C@]43C)[C@@H]12.Cl")
4.7

----------
assay: Oral bioavailability in Sprague-Dawley rat at 11.8 mg/kg via gavage up to 24 hrs by LC-MS/MS analysis; type: ADME, organism-based; settings: in vivo
Readout: bioavailability (%)

>>> meas_value("C=C(C)[C@@H]1CC[C@]2(CNCCCN3CCS(=O)(=O)CC3)CC[C@]3(C)[C@H](CC[C@@H]4[C@@]5(C)CC=C(c6ccc(C(=O)O)cc6)C(C)(C)[C@@H]5CC[C@]43C)[C@@H]12.Cl")
8

----------
experiment: in vitro; conditions: human, MT2 cells
Description: Cytotoxicity against human MT2 cells
// NB: equality with 7 µM counts as No; only CC50 strictly below is Yes

>>> classification("C=C(C)[C@@H]1CC[C@]2(CNCCN(C(C)C)C(C)C)CC[C@]3(C)[C@H](CC[C@@H]4[C@@]5(C)CC=C(c6ccc(C(=O)O)cc6)C(C)(C)[C@@H]5CC[C@]43C)[C@@H]12")
"Yes"
>>> classification("C=C(C)[C@@H]1CC[C@]2(CNCCN3CCS(=O)(=O)CC3)CC[C@]3(C)[C@H](CC[C@@H]4[C@@]5(C)CC=C(c6ccc(C(=O)O)cc6)C(C)(C)[C@@H]5CC[C@]43C)[C@@H]12")
"Yes"
>>> classification("C=C(C)[C@@H]1CC[C@]2(CNCCCO)CC[C@]3(C)[C@H](CC[C@@H]4[C@@]5(C)CC=C(c6ccc(C(=O)O)cc6)C(C)(C)[C@@H]5CC[C@]43C)[C@@H]12")
"Yes"
>>> classification("C=C(C)[C@@H]1CC[C@]2(CNCCN(CC)CC)CC[C@]3(C)[C@H](CC[C@@H]4[C@@]5(C)CC=C(c6ccc(C(=O)O)cc6)C(C)(C)[C@@H]5CC[C@]43C)[C@@H]12")
"No"

----------
experiment: in vitro; details: human, MT2 cells
Below, each entry is listed alongside its reported CC50.
Readout: CC50 (µM)

>>> meas_value("C=C(C)[C@@H]1CC[C@]2(CN(CCN(C)C)C(=O)CCC(=O)O)CC[C@]3(C)[C@H](CC[C@@H]4[C@@]5(C)CC=C(c6ccc(C(=O)O)cc6)C(C)(C)[C@@H]5CC[C@]43C)[C@@H]12")
30
>>> meas_value("C=C(C)[C@@H]1CC[C@]2(CNCCN3CCN(C)CC3)CC[C@]3(C)[C@H](CC[C@@H]4[C@@]5(C)CC=C(c6ccc(C(=O)O)cc6)C(C)(C)[C@@H]5CC[C@]43C)[C@@H]12")
0.97
>>> meas_value("C=C(C)[C@@H]1CC[C@]2(CNCCn3ccnc3)CC[C@]3(C)[C@H](CC[C@@H]4[C@@]5(C)CC=C(c6ccc(C(=O)O)cc6)C(C)(C)[C@@H]5CC[C@]43C)[C@@H]12")
12
>>> meas_value("C=C(C)[C@@H]1CC[C@]2(CNCCCN3CCOCC3)CC[C@]3(C)[C@H](CC[C@@H]4[C@@]5(C)CC=C(c6ccc(C(=O)O)cc6)C(C)(C)[C@@H]5CC[C@]43C)[C@@H]12")
2.2
>>> meas_value("C=C(C)[C@@H]1CC[C@]2(CNCCCN3CCS(=O)(=O)CC3)CC[C@]3(C)[C@H](CC[C@@H]4[C@@]5(C)CC=C(c6ccc(C(=O)O)cc6)C(C)(C)[C@@H]5CC[C@]43C)[C@@H]12")
3.5
>>> meas_value("C=C(C)[C@@H]1CC[C@]2(CNCCN3CCCCC3)CC[C@]3(C)[C@H](CC[C@@H]4[C@@]5(C)CC=C(c6ccc(C(=O)O)cc6)C(C)(C)[C@@H]5CC[C@]43C)[C@@H]12")
4
>>> meas_value("C=C(C)[C@@H]1CC[C@]2(CNCCc3ccc(S(N)(=O)=O)cc3)CC[C@]3(C)[C@H](CC[C@@H]4[C@@]5(C)CC=C(c6ccc(C(=O)O)cc6)C(C)(C)[C@@H]5CC[C@]43C)[C@@H]12")
2.4
>>> meas_value("C=C(C)[C@@H]1CC[C@]2(CN(C)CCCN3CCS(=O)(=O)CC3)CC[C@]3(C)[C@H](CC[C@@H]4[C@@]5(C)CC=C(c6ccc(C(=O)O)cc6)C(C)(C)[C@@H]5CC[C@]43C)[C@@H]12")
10
>>> meas_value("C=C(C)[C@@H]1CC[C@]2(CNCCCN3CCCCC3)CC[C@]3(C)[C@H](CC[C@@H]4[C@@]5(C)CC=C(c6ccc(C(=O)O)cc6)C(C)(C)[C@@H]5CC[C@]43C)[C@@H]12")
0.24
>>> meas_value("C=C(C)[C@@H]1CC[C@]2(CNCCCN3CCN(C)CC3)CC[C@]3(C)[C@H](CC[C@@H]4[C@@]5(C)CC=C(c6ccc(C(=O)O)cc6)C(C)(C)[C@@H]5CC[C@]43C)[C@@H]12")
0.7

----------
assay: in vitro; details: human, liver microsomes
Description: Half life in human liver microsomes at 0.5 uM in presence of NADPH by LC-MS/MS method
Readout: half-life at 0.5 µM

>>> meas_value("C=C(C)[C@@H]1CC[C@]2(C(=O)NCCN(C)C)CC[C@]3(C)[C@H](CC[C@@H]4[C@@]5(C)CC=C(c6ccc(C(=O)O)cc6)C(C)(C)[C@@H]5CC[C@]43C)[C@@H]12")
"> 2 h"
>>> meas_value("C=C(C)[C@@H]1CC[C@]2(CNCCCO)CC[C@]3(C)[C@H](CC[C@@H]4[C@@]5(C)CC=C(c6ccc(C(=O)O)cc6)C(C)(C)[C@@H]5CC[C@]43C)[C@@H]12")
"> 2 h"
>>> meas_value("C=C(C)[C@@H]1CC[C@]2(CN(C)CCCN3CCS(=O)(=O)CC3)CC[C@]3(C)[C@H](CC[C@@H]4[C@@]5(C)CC=C(c6ccc(C(=O)O)cc6)C(C)(C)[C@@H]5CC[C@]43C)[C@@H]12")
"> 2 h"
>>> meas_value("C=C(C)[C@@H]1CC[C@]2(CNCCN(C)C)CC[C@]3(C)[C@H](CC[C@@H]4[C@@]5(C)CC=C(c6ccc(C(=O)O)cc6)C(C)(C)[C@@H]5CC[C@]43C)[C@@H]12")
"> 2 h"
>>> meas_value("C=C(C)[C@@H]1CC[C@]2(CNCCN3CCS(=O)(=O)CC3)CC[C@]3(C)[C@H](CC[C@@H]4[C@@]5(C)CC=C(c6ccc(C(=O)O)cc6)C(C)(C)[C@@H]5CC[C@]43C)[C@@H]12")
"> 2 h"
>>> meas_value("C=C(C)[C@@H]1CC[C@]2(CN(CCCN3CCS(=O)(=O)CC3)C3CC3)CC[C@]3(C)[C@H](CC[C@@H]4[C@@]5(C)CC=C(c6ccc(C(=O)O)cc6)C(C)(C)[C@@H]5CC[C@]43C)[C@@H]12")
"> 2 h"
>>> meas_value("C=C(C)[C@@H]1CC[C@]2(CNCCN3CCOCC3)CC[C@]3(C)[C@H](CC[C@@H]4[C@@]5(C)CC=C(c6ccc(C(=O)O)cc6)C(C)(C)[C@@H]5CC[C@]43C)[C@@H]12")
"1.62 h"

----------
assay: AUClast in Sprague-Dawley rat at 5 mg/kg, po via gavage up to 24 hrs by LC-MS/MS analysis; format: ADME, organism-based; set-up: time < 24 hr, dose 5 mg/kg, route oral; details: in vivo
Readout: AUC(0-t) at 24 h (µM·h)

>>> meas_value("C=C(C)[C@@H]1CC[C@]2(CNCCCN3CCS(=O)(=O)CC3)CC[C@]3(C)[C@H](CC[C@@H]4[C@@]5(C)CC=C(c6ccc(C(=O)O)cc6)C(C)(C)[C@@H]5CC[C@]43C)[C@@H]12.Cl")
2.99

----------
assay: AUClast in Sprague-Dawley rat at 124 mg/kg, po via gavage up to 24 hrs by LC-MS/MS analysis; type: ADME, organism-based; design: time < 24 hr, dose 124 mg/kg, route oral; conditions: in vivo
Readout: AUC(0-t) at 24 h (µM·h)

>>> meas_value("C=C(C)[C@@H]1CC[C@]2(CNCCCN3CCS(=O)(=O)CC3)CC[C@]3(C)[C@H](CC[C@@H]4[C@@]5(C)CC=C(c6ccc(C(=O)O)cc6)C(C)(C)[C@@H]5CC[C@]43C)[C@@H]12.Cl")
23.2

----------
experiment: Dissociation constant, pKa of the compound; format: physicochemical
Readout: pKa

>>> meas_value("C=C(C)[C@@H]1CC[C@]2(CNCCCN3CCOCC3)CC[C@]3(C)[C@H](CC[C@@H]4[C@@]5(C)CC=C(c6ccc(C(=O)O)cc6)C(C)(C)[C@@H]5CC[C@]43C)[C@@H]12")
8.2
>>> meas_value("C=C(C)[C@@H]1CC[C@]2(CNCCN3CCOCC3)CC[C@]3(C)[C@H](CC[C@@H]4[C@@]5(C)CC=C(c6ccc(C(=O)O)cc6)C(C)(C)[C@@H]5CC[C@]43C)[C@@H]12")
8.2
>>> meas_value("C=C(C)[C@@H]1CC[C@]2(CNCCN3CCC(F)(F)CC3)CC[C@]3(C)[C@H](CC[C@@H]4[C@@]5(C)CC=C(c6ccc(C(=O)O)cc6)C(C)(C)[C@@H]5CC[C@]43C)[C@@H]12")
8.6
